Test system: HeLa Kyoto;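 note: synchronized HeLa Kyoto cells, proteins quantified by TMT10plex mass spectrometry, three biological replicates, mitosis taken 0.5 h after nocodazole release, G1/S directly after double thymidine block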
Experiment: thermal stability score vs G1/S (z-score of summed log2 fold changes over temperatures); higher = more thermally stable than in G1/S
Conditions: cell cycle stage: early G1 (4.5 h after nocodazole release)
Reported thermal stability score values for a set of sequences
# print the numeric value only

INSERT INTO measurements (biosequence, reportedmeasurement) VALUES
  ('MGAFLDKPKMEKHNAQGQGNGLRYGLSSMQGWRVEMEDAHTAVIGLPSGLESWSFFAVYDGHAGSQVAKYCCEHLLDHITNNQDFKGSAGAPSVENVKNGIRTGFLEIDEHMRVMSEKKHGADRSGSTAVGVLISPQHTYFINCGDSRGLLCRNRKVHFFTQDHKPSNPLEKERIQNAGGSVMIQRVNGSLAVSRALGDFDYKCVHGKGPTEQLVSPEPEVHDIERSEEDDQFIILACDGIWDVMGNEELCDFVRSRLEVTDDLEKVCNEVVDTCLYKGSRDNMSVILICFPNAPKVSPEAVKKEAELDKYLECRVEEIIKKQGEGVPDLVHVMRTLASENIPSLPPGGELASKRNVIEAVYNRLNPYKNDDTDSTSTDDMW [PPM1A]', 0.1),
  ('MPELAVQKVVVHPLVLLSVVDHFNRIGKVGNQKRVVGVLLGSWQKKVLDVSNSFAVPFDEDDKDDSVWFLDHDYLENMYGMFKKVNARERIVGWYHTGPKLHKNDIAINELMKRYCPNSVLVIIDVKPKDLGLPTEAYISVEEVHDDGTPTSKTFEHVTSEIGAEEAEEVGVEHLLRDIKDTTVGTLSQRITNQVHGLKGLNSKLLDIRSYLEKVATGKLPINHQIIYQLQDVFNLLPDVSLQEFVKAFYLKTNDQMVVVYLASLIRSVVALHNLINNKIANRDAEKKEGQEKEESKKDRKEDKEKDKDKEKSDVKKEEKKEKK [PSMD7]', -0.335),
  ('MAAPLRIQSDWAQALRKDEGEAWLSCHPPGKPSLYGSLTCQGIGLDGIPEVTASEGFTVNEINKKSIHISCPKENASSKFLAPYTTFSRIHTKSITCLDISSRGGLGVSSSTDGTMKIWQASNGELRRVLEGHVFDVNCCRFFPSGLVVLSGGMDAQLKIWSAEDASCVVTFKGHKGGILDTAIVDRGRNVVSASRDGTARLWDCGRSACLGVLADCGSSINGVAVGAADNSINLGSPEQMPSEREVGTEAKMLLLAREDKKLQCLGLQSRQLVFLFIGSDAFNCCTFLSGFLLLAGTQDGNIYQLDVRSPRAPVQVIHRSGAPVLSLLSVRDGFIASQGDGSCFIVQQDLDYVTELTGADCDPVYKVATWEKQIYTCCRDGLVRRYQLSDL [PAAF1]', -0.462),
  ('MSVTLHTDVGDIKIEVFCERTPKTCENFLALCASNYYNGCIFHRNIKGFMVQTGDPTGTGRGGNSIWGKKFEDEYSEYLKHNVRGVVSMANNGPNTNGSQFFITYGKQPHLDMKYTVFGKVIDGLETLDELEKLPVNEKTYRPLNDVHIKDITIHANPFAQ [PPIL3]', 1.02),
  ('MAAQCVRLARRSLPALALSLRPSPRLLCTATKQKNSGQNLEEDMGQSEQKADPPATEKTLLEEKVKLEEQLKETVEKYKRALADTENLRQRSQKLVEEAKLYGIQAFCKDLLEVADVLEKATQCVPKEEIKDDNPHLKNLYEGLVMTEVQIQKVFTKHGLLKLNPVGAKFDPYEHEALFHTPVEGKEPGTVALVSKVGYKLHGRTLRPALVGVVKEA [GRPEL1]', -2.01),
  ('MSSPQAPEDGQGCGDRGDPPGDLRSVLVTTVLNLEPLDEDLFRGRHYWVPAKRLFGGQIVGQALVAAAKSVSEDVHVHSLHCYFVRAGDPKLPVLYQVERTRTGSSFSVRSVKAVQHGKPIFICQASFQQAQPSPMQHQFSMPTVPPPEELLDCETLIDQYLRDPNLQKRYPLALNRIAAQEVPIEIKPVNPSPLSQLQRMEPKQMFWVRARGYIGEGDMKMHCCVAAYISDYAFLGTALLPHQWQHKVHFMVSLDHSMWFHAPFRADHWMLYECESPWAGGSRGLVHGRLWRQDGVLAVTCAQEGVIRVKPQVSESKL [ACOT8]', 0.114),
  ('MANNDAVLKRLEQKGAEADQIIEYLKQQVSLLKEKAILQATLREEKKLRVENAKLKKEIEELKQELIQAEIQNGVKQIPFPSGTPLHANSMVSENVIQSTAVTTVSSGTKEQIKGGTGDEKKAKEKIEKKGEKKEKKQQSIAGSADSKPIDVSRLDLRIGCIITARKHPDADSLYVEEVDVGEIAPRTVVSGLVNHVPLEQMQNRMVILLCNLKPAKMRGVLSQAMVMCASSPEKIEILAPPNGSVPGDRITFDAFPGEPDKELNPKKKIWEQIQPDLHTNDECVATYKGVPFEVKGKGVCRAQTMSNSGIK [AIMP1]', -0.0166),
  ('MASAVFEGTSLVNMFVRGCWVNGIRRLIVSRRGDEEEFFEIRTEWSDRSVLYLHRSLADLGRLWQRLRDAFPEDRSELAQGPLRQGLVAIKEAHDIETRLNEVEKLLKTIISMPCKYSRSEVVLTFFERSPLDQVLKNDNVHKIQPSFQSPVKISEIMRSNGFCLANTETIVIDHSIPNGRDQQLGVDPTEHLFENGSEFPSELEDGDDPAAYVTNLSYYHLVPFETDIWD [PXDC1]', -0.022);

Lab note: measured thermal stability score of MPFLELDTNLPANRVPAGLEKRLCAAAASILGKPADRVNVTVRPGLAMALSGSTEPCAQLSISSIGVVGTAEDNRSHSAHFFEFLTKELALGQDRILIRFFPLESWQIGKIGTVMTFL [DDT] was -2.25

Lab note: measured thermal stability score of MPKVKSGAIGRRRGRQEQRRELKSAGGLMFNTGIGQHILKNPLIINSIIDKAALRPTDVVLEVGPGTGNMTVKLLEKAKKVVACELDPRLVAELHKRVQGTPVASKLQVLVGDVLKTDLPFFDTCVANLPYQISSPFVFKLLLHRPFFRCAILMFQREFALRLVAKPGDKLYCRLSINTQLLARVDHLMKVGKNNFRPPPKVESSVVRIEPKNPPPPINFQEWDGLVRITFVRKNKTLSAAFKSSAVQQLLEKNYRIHCSVHNIIIPEDFSIADKIQQILTSTGFSDKRARSMDIDDFIRLLHGFNAEGIHFS [DIMT1] was 0.644
